Target: T1, CRY-DASH (VcCry1, MBP fusion) (Vibrio cholerae, UniProt Q9KR33 1-461)
T1 sequence: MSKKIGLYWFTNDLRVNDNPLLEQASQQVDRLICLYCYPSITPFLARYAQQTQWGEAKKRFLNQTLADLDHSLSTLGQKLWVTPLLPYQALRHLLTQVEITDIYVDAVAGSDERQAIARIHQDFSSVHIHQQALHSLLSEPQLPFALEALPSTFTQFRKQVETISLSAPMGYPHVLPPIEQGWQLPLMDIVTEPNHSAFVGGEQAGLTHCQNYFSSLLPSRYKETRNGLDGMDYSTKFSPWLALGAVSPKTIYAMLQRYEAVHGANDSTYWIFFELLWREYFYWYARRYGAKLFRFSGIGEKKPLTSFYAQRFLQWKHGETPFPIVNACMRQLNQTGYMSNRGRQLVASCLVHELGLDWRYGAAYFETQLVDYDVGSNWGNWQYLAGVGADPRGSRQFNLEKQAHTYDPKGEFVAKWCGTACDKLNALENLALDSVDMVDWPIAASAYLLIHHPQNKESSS
Assay: SPR; photoactivated, DTT; repair during injection; SPR (SensiQ Discovery, neutravidin BioCap chip), 1X PBS (10 mM phosphate, 2.7 mM KCl, 137 mM NaCl) pH 7.4, 0.005% Tween 20, 25 C, 50 uL/min; protein in PBS with 1 mM DTT
Details: protein: recombinant; tags: MBP (pMal-c2x, pUNC2002); label: 5'-biotin
Result type: Kd (nM)
Hi! Could you send only the number? It should be in nM, unit omitted.

Which Kd is reported for this binder? GACGCAGATCTACGAATTCGCTTAATTCGCTGCACCGGATCCCGCTAG (ssDNA, UV 254 nm irradiated, mostly CPD (mixed lesions, positions not defined)) [UV-damaged ssDNA 48-mer]
63.7
